- system under test: XIAP-BIR3 (Homo sapiens (Human))
- Sequence (P98170 241-356): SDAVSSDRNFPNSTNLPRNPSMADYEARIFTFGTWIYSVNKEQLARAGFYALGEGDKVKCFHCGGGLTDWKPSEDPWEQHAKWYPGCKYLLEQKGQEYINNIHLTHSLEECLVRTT
- method summary: BIR binding assay (FRET competition), XIAP BIR3
pIC50: −log10 of the molar value.
value type: pIC50

get_value(item= C[C@@H]1CN(CC(=O)N2CC(C)(C)c3[nH]c(=O)c(Cc4ccc(F)cc4)cc32)[C@@H](CN2CCO[C@H](COCc3c(F)c(F)c(COC[C@@H]4CN(C[C@H]5CN[C@H](C)CN5CC(=O)N5CC(C)(C)c6[nH]c(=O)c(Cc7ccc(F)cc7)cc65)CCO4)c(F)c3F)C2)CN1 , readout=pIC50) returns 6.30 to 7.50

More entries:
# pIC50 (molecule: C[C@@H]1CN(CC(=O)N2CC(C)(C)c3[nH]c(=O)c(Cc4ccc(F)cc4)cc32)[C@@H](CN2CCO[C@H](C(=O)NCCOCCOCCOCCNC(=O)[C@@H]3CN(C[C@H]4CN[C@H](C)CN4CC(=O)N4CC(C)(C)c5[nH]c(=O)c(Cc6ccc(F)cc6)cc54)CCO3)C2)CN1 ) is 7.80 to 8.10

get_value(item= C[C@@H]1CN(CC(=O)N2CC(C)(C)c3[nH]c(=O)c(Cc4ccc(F)cc4)cc32)[C@@H](CN2CCC(CN(C)Cc3ccc(CN(C)CC4CCN(C[C@H]5CN[C@H](C)CN5CC(=O)N5CC(C)(C)c6[nH]c(=O)c(Cc7ccc(F)cc7)cc65)CC4)cc3)CC2)CN1 , readout=pIC50) returns 7.50 to 7.80

// C[C@@H]1CN(CC(=O)N2CC(C)(C)c3[nH]c(=O)c(Cc4ccc(F)cc4)cc32)[C@@H](CN2CCO[C@H](C(=O)NCC#CC#CCNC(=O)[C@@H]3CN(C[C@H]4CN[C@H](C)CN4CC(=O)N4CC(C)(C)c5[nH]c(=O)c(Cc6ccc(F)cc6)cc54)CCO3)C2)CN1 : pIC50 value = 6.30 to 7.50

----------
pIC50 for assorted compounds
- system under test: cIAP2-BIR2 (Homo sapiens (Human), UniProt Q13489)
- Sequence (Q13489 158-242): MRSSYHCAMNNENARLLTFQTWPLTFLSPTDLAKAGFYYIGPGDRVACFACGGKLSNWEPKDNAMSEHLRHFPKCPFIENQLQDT
- method summary: BIR binding assay (FRET competition), cIAP2 BIR2
pIC50: −log10 of the molar value.

Entry Cc1c(OC[C@@H]2CN(C[C@H]3CN[C@H](C)CN3CC(=O)N3CC(C)(C)c4[nH]c(=O)c(Cc5ccc(F)cc5)cc43)CCO2)cccc1OC[C@@H]1CN(C[C@H]2CN[C@H](C)CN2CC(=O)N2CC(C)(C)c3[nH]c(=O)c(Cc4ccc(F)cc4)cc32)CCO1 — recorded pIC50 = 5.00 to 5.50

// C[C@@H]1CN(CC(=O)N2CC(C)(C)c3[nH]c(=O)c(Cc4ccc(Cl)cc4C#N)cc32)[C@@H](CN2CCO[C@H](C(=O)NCc3ccc(CNC(=O)[C@@H]4CN(C[C@H]5CN[C@H](C)CN5CC(=O)N5CC(C)(C)c6[nH]c(=O)c(Cc7ccc(Cl)cc7C#N)cc65)CCO4)cc3)C2)CN1 : pIC50 value = 6.00 to 7.65

Noted for C[C@@H]1CN(CC(=O)N2CC(C)(C)c3c2cc(Cc2ccc(F)cc2)c(=O)n3C)[C@@H](CN2CCO[C@H](COCC#CC#CCOC[C@@H]3CN(C[C@H]4CN[C@H](C)CN4CC(=O)N4CC(C)(C)c5c4cc(Cc4ccc(F)cc4)c(=O)n5C)CCO3)C2)CN1 : its pIC50 reads 5.00 to 5.50

Next compound, please.
Measured pIC50, C[C@@H]1CN(CC(=O)N2CC(C)(C)c3[nH]c(=O)c(Cc4ccc(F)cc4)cc32)[C@@H](CN2CCO[C@H](COc3ccc(F)c(OC[C@@H]4CN(C[C@H]5CN[C@H](C)CN5CC(=O)N5CC(C)(C)c6[nH]c(=O)c(Cc7ccc(F)cc7)cc65)CCO4)c3)C2)CN1 : 6.00 to 7.65

----------
- system under test: cIAP1-BIR2 (Homo sapiens (Human), UniProt Q13490)
- Sequence (Q13490 173-257): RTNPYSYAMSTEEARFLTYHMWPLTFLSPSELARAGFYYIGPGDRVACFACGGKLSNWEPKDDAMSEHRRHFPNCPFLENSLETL
- method summary: BIR binding assay (FRET competition), cIAP1 BIR2
value type: IC50

Use these answered entries as a reference point.
Query C[C@@H]1CN(CC(=O)N2CC(C)(C)c3[nH]c(=O)c(Cc4ccc(F)cc4)cc32)[C@@H](CN2CCN(C(=O)c3cccnc3-c3ncccc3C(=O)N3CCN(C[C@H]4CN[C@H](C)CN4CC(=O)N4CC(C)(C)c5[nH]c(=O)c(Cc6ccc(F)cc6)cc54)[C@H](C)C3)C[C@H]2C)CN1 [Example 17] yields IC50 of 22.4 to 1000 nM

The compound C[C@@H]1CN(CC(=O)N2CC(C)(C)c3[nH]c(=O)c(Cc4ccc(Cl)cc4C#N)cc32)[C@@H](CN2CCO[C@H](COc3cccc(OC[C@@H]4CN(C[C@H]5CN[C@H](C)CN5CC(=O)N5CC(C)(C)c6[nH]c(=O)c(Cc7ccc(Cl)cc7C#N)cc65)CCO4)c3)C2)CN1 [Compound 189] showed IC50 equal to 1000 to 3160 nM

// IC50 value for C[C@@H]1CN(CC(=O)N2CC(C)(C)c3[nH]c(=O)c(Cc4ccc(F)cc4)cc32)[C@@H](CN2CCC(CC(=O)NCc3ccc(CNC(=O)CC4CCN(C[C@H]5CN[C@H](C)CN5CC(=O)N5CC(C)(C)c6[nH]c(=O)c(Cc7ccc(F)cc7)cc65)CC4)cc3)CC2)CN1 [Example 105] : 3160 to 10000 nM

The value of IC50 measured for the compound C[C@@H]1CN(CC(=O)N2CC(C)(C)c3[nH]c(=O)c(Cc4ccc(F)cc4)cc32)[C@@H](CN2CCO[C@H](COCc3cccc(COC[C@@H]4CN(C[C@H]5CN[C@H](C)CN5CC(=O)N5CC(C)(C)c6[nH]c(=O)c(Cc7ccc(F)cc7)cc65)CCO4)n3)C2)CN1 [Example 84] turned out to be 1000 to 3160 nM

The measured IC50 associated with C[C@@H]1CN(CC(=O)N2CC(C)(C)c3[nH]c(=O)c(Cc4ccc(F)cc4)cc32)[C@@H](CN2CCN(C(=O)COCCOCCOCC(=O)N3CCN(C[C@H]4CN[C@H](C)CN4CC(=O)N4CC(C)(C)c5[nH]c(=O)c(Cc6ccc(F)cc6)cc54)[C@H](C)C3)C[C@H]2C)CN1 (stereo in doubt) [Example 6] reads 22.4 to 1000 nM

Further cases:
Per the records, this compound ( C[C@@H]1CN(CC(=O)N2CC(C)(C)c3[nH]c(=O)c(Cc4ccc(F)cc4)cc32)[C@@H](CN2CCO[C@H](COc3ccccc3Oc3ccccc3OC[C@@H]3CN(C[C@H]4CN[C@H](C)CN4CC(=O)N4CC(C)(C)c5[nH]c(=O)c(Cc6ccc(F)cc6)cc54)CCO3)C2)CN1 [Example 68] ) has IC50 equal to 3160 to 10000 nM

Recorded IC50 (compound C[C@@H]1CN(CC(=O)N2CC(C)(C)c3[nH]c(=O)c(Cc4c(F)cc(F)cc4F)cc32)[C@@H](CN2CCO[C@H](COc3cccc(OC[C@@H]4CN(C[C@H]5CN[C@H](C)CN5CC(=O)N5CC(C)(C)c6[nH]c(=O)c(Cc7c(F)cc(F)cc7F)cc65)CCO4)c3)C2)CN1 [Compound 188] ): 1000 to 3160 nM

----------
- Tested on: Jurkat HIV-luciferase clones
- method summary: Jurkat latency reversal assay
- Assay type: cell-based
- conditions used: Homo sapiens, 48 h; Jurkat latency reversal assay potency; read-out: Jurkat pEC50 (converted)
- Procedure: Jurkat HIV-luciferase clones were maintained in RPMI medium 1640 (Gibco by Life Technologies) containing 10% (vol/vol) fetal bovine serum (SAFC/Sigma-Aldrich) and 25 units/mL penicillin, 25 units/mL streptomycin (Gibco by Life Technologies), and were split 1:4 every 3 to 4 days to maintain a cell density of ˜0.3 to 1 million cells/mL. […] Luminescence resulting from the induction of the virally expressed luciferase was measured using an EnVision 2102 Multilabel Plate Reader (Perkin Elmer). […]
value type: EC50

Some solved cases for reference:
Sample C[C@@H]1CN(CC(=O)N2CC(C)(C)c3[nH]c(=O)c(Cc4ccc(F)cc4)cc32)[C@@H](CN2CCC[C@H](NC(=O)Cc3cccc(CC(=O)N[C@H]4CCCN(C[C@H]5CN[C@H](C)CN5CC(=O)N5CC(C)(C)c6[nH]c(=O)c(Cc7ccc(F)cc7)cc65)C4)c3)C2)CN1 ; EC50 observed: 316 to 3310 nM

Reported EC50 ( C[C@@H]1CN(CC(=O)N2CC(C)(C)c3[nH]c(=O)c(Cc4ccc(F)cc4)cc32)[C@@H](CN2CCO[C@H](C(=O)NCC3CCN(C(=O)[C@@H]4CN(C[C@H]5CN[C@H](C)CN5CC(=O)N5CC(C)(C)c6[nH]c(=O)c(Cc7ccc(F)cc7)cc65)CCO4)CC3)C2)CN1 ) = 63.1 to 316 nM

Others:
The measured EC50 associated with C[C@@H]1CN(CC(=O)N2CC(C)(C)c3c2cc(Cc2ccc(F)cc2)c(=O)n3C)[C@@H](CN2CCO[C@H](COCC#CC#CCOC[C@@H]3CN(C[C@H]4CN[C@H](C)CN4CC(=O)N4CC(C)(C)c5c4cc(Cc4ccc(F)cc4)c(=O)n5C)CCO3)C2)CN1 reads 316 to 3310 nM

According to the records, this compound Cc1ccc(Cc2cc3c([nH]c2=O)C(C)(C)CN3C(=O)CN2C[C@@H](C)NC[C@@H]2CN2CCO[C@H](C(=O)NCc3ccc(CNC(=O)[C@@H]4CN(C[C@H]5CN[C@H](C)CN5CC(=O)N5CC(C)(C)c6[nH]c(=O)c(Cc7ccc(C)cc7)cc65)CCO4)cc3)C2)cc1 displays EC50 of 12.6 to 63.1 nM
